target: CD3 epsilon (Homo sapiens, UniProt P07766 P07766:23-126); assay: SPR; conditions: tags: Fc chimera His tag, Abcam ab220590
Sequence (P07766 23-126, one chain of several): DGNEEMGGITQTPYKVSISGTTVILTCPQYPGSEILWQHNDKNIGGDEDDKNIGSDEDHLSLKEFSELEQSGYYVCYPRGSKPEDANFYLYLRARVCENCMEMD
value_kind: pKd
One number for each entry, as −log10 of the molar value.

Give its pKd value. Item: ATCGTATAAGGGCTGCTTAGGATTGCGATAATACGGTCAA (ssDNA) [CS6]
7.51
